Data provenance is paper PMC11170630.

# Test system: normal colonocyte
# EXPERIMENTAL DETAILS: MTT cytotoxicity on normal colonic epithelial cells
# Format: cell-based, rat
# ASSAY SETUP: concentration at 100% cell viability (safe dose), 72 h, mean ± SEM
OUTCOME MEASURE: EC100 normal colonocyte (µM)
Unit µM implied. Number only.

MOLECULE: CC(=O)c1ccc(-n2cc(Cn3c(=O)c(Cc4ccccc4)nc4ccccc43)nn2)cc1
EC100 normal colonocyte (µM): 0.212
--
MOLECULE: O=C(O)CNC(=O)c1ccc(-n2cc(Cn3c(=O)c(Cc4ccccc4)nc4ccccc43)nn2)cc1
EC100 normal colonocyte (µM): 0.169

Exercise: Find EC100 normal colonocyte (normal colonocyte) for the entry O=c1c(Cc2ccccc2)nc2ccccc2n1Cc1cn(-c2ccc(O)cc2)nn1
Solution: 0.556

Exercise: Find EC100 normal colonocyte (normal colonocyte) for the entry CC(=O)NS(=O)(=O)c1ccc(-n2cc(Cn3c(=O)c(Cc4ccccc4)nc4ccccc43)nn2)cc1
Solution: 0.150

Exercise: Find EC100 normal colonocyte (normal colonocyte) for the entry COc1cccc2c1C(=O)c1c(O)c3c(c(O)c1C2=O)C[C@@](O)(C(=O)CO)C[C@@H]3O[C@H]1C[C@H](N)[C@H](O)[C@H](C)O1 [DOX, doxorubicin, reference compound]
Solution: 0.074

Exercise: Find EC100 normal colonocyte (normal colonocyte) for the entry O=c1c(Cc2ccccc2)nc2ccccc2n1Cc1cn(-c2ccc(I)cc2)nn1
Solution: 0.103
